- System: SK-MEL-28 melanoma
- Experiment: NCI-60 one-dose screen, 48 h (100 = growth as untreated, 0 = no growth, -100 = all killed)
- Condition Notes: 10 µM unless noted
About 83,000 compounds went through this panel and 20% of them were active in at least one assay; those are over-represented in the sample as a whole. Calls of active or inactive are those of the source. The calls were made as follows: active = growth percent below 10; inactive = the rest.
Property Label: growth

Take a look at these entries with their results.
[
  {
    "Molecule": "COc1cc(/C=C\\c2cc(/C=C\\c3ccc(O)c(OC)c3)n(C(=O)CNc3ccc(Cl)cc3)n2)ccc1O",
    "Reading": "49.5% (inactive)"
  },
  {
    "Molecule": "Cc1c(N2CN3C[C@H](C)N4CN(c5c(C)n(C)n(-c6ccccc6)c5=O)CN5C[C@@H](C)N(C2)C3C54)c(=O)n(-c2ccccc2)n1C (some centres undefined)",
    "Reading": "101% (inactive)"
  }
]

stdin: Please report the recorded growth for CC[C@H](Nc1nc(N)nc(C)c1C#N)c1nc2cccc(NCCCCCC(=O)NO)c2c(=O)n1-c1ccccc1 .
stdout: 45.8% (inactive)

stdin: One more molecule: CC(C)CCSc1nc(Nc2ccccc2)c(C#N)c(-c2ccccc2)n1
stdout: 82.1% (inactive)

stdin: Can you handle COc1cc(OC)cc(C2C(C#N)=C(N)Oc3c2ccc2ccc(O)cc32)c1 (centres undefined) next?
stdout: 48.6% (inactive)

stdin: Continue with Cc1ccccc1CNc1c2ccccc2nc2ccccc12
stdout: 58.3% (inactive)
